// provenance: ChEMBL document CHEMBL1155440

# protocol-text: Drug level in C57Bl6 mouse plasma at 100 mg/kg, po after 1 hr by UV-reverse phase HPLC analysis
# Type: ADME, organism-based
# Set-up: dose 100 mg/kg, route oral
# test-context: read-out: Drug uptake
observable: concentration at 1 h (ng/mL)
Quick reminder: number only, in ng/mL, skip the unit.

The compound CC(C)C(=O)c1cn(CC(O)COc2ccc(Oc3ccccc3)cc2)c2ccc(C(=O)O)cc12 (stereo unspecified) showed concentration at 1 h equal to 1700

---

# protocol-text: Drug level in C57Bl6 mouse plasma at 10 mg/kg, iv after 30 mins by UV-reverse phase HPLC analysis
# Format: ADME, organism-based
# Set-up: dose 10 mg/kg, route intravenous
# test-context: read-out: Drug uptake
observable: concentration at 0.5 h (ng/mL)
Quick reminder: number only, in ng/mL, skip the unit.

The compound CC(C)C(=O)c1cn(CC(O)COc2ccc(Oc3ccccc3)cc2)c2ccc(C(=O)O)cc12 (stereo unspecified) showed concentration at 0.5 h equal to 500
